Target: UniProt:P18031
Sequence (P18031 whole entry): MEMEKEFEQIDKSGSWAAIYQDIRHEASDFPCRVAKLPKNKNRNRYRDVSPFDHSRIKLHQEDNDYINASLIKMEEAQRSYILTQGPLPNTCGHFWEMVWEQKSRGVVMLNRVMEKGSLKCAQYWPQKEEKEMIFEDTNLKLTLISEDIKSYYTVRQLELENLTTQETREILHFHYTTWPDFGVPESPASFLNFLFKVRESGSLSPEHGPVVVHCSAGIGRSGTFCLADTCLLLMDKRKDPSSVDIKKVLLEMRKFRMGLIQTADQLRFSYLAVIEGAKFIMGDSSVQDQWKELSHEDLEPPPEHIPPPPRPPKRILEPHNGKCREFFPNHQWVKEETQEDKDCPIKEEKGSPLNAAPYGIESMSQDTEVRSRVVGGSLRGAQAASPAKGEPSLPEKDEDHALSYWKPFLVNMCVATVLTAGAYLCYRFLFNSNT
Assay: Inhibition of N-terminal His tagged recombinant human PTP1B expressed in Escherichia coli using pNPP as substrate assessed as substrate hydrolysis at 40 umol/L relative to control
Conditions: dose 40.0 µmol/L
Numbered stars: 1 amine (or outer) side, 2 acyl side, 3 side chain; on linkers, the order of the positions; unused ones are H or OH. Square brackets hold non-standard residues; d marks the D form. Peptide text beside a SMILES is read from it. * marks the point of attachment. ξ: configuration not given here. C18 diacid = O=C(O)CCCCCCCCCCCCCCCCC(=O)*; C17 diacid = O=C(O)CCCCCCCCCCCCCCCC(=O)*; Heptadecanoyl = CCCCCCCCCCCCCCCCC(=O)*; γGlu = O=C(O)[C@H](CCC(=O)[*:2])N[*:1]; C14 diacid = O=C(O)CCCCCCCCCCCCC(=O)*; ξR = N=C(N)NCCCC(N)C(=O)O; Octanoyl = CCCCCCCC(=O)*; AEEA = NCCOCCOCC(=O)O
Reported inhibition values are given for each entry in this list.

Guide cases for inhibition, answers given:
{"COMPOUND": "CCCCCCCC(=O)N[C@H](C(=O)N[C@@H](C)C(=O)N[C@@H](CCC(N)=O)C(=O)N[C@@H](CCC(=O)O)C(=O)N[C@@H](CC(C)C)C(=O)N[C@@H](CCCNC(=N)N)C(=O)N[C@@H](CCCNC(=N)N)C(=O)N[C@H](C(=O)NCC(=O)N[C@@H](CC(=O)O)C(=O)N[C@@H](CCC(=O)O)C(=O)N[C@@H](Cc1ccccc1)C(=O)O)[C@@H](C)CC)[C@@H](C)CC (Octanoyl-IAQELRRIGDEF-OH)", "inhibition": "< 50%"}
{"COMPOUND": "CCCCCCCCCCCCCCCCC(=O)N[C@H](C(=O)N[C@@H](C)C(=O)N[C@@H](CCC(N)=O)C(=O)N[C@@H](CCC(=O)O)C(=O)N[C@@H](CC(C)C)C(=O)N[C@@H](CCCNC(=N)N)C(=O)N[C@@H](CCCNC(=N)N)C(=O)N[C@H](C(=O)NCC(=O)N[C@@H](CC(=O)O)C(=O)N[C@@H](CCC(=O)O)C(=O)N[C@@H](Cc1ccccc1)C(=O)O)[C@@H](C)CC)[C@@H](C)CC (Heptadecanoyl-IAQELRRIGDEF-OH)", "inhibition": "> 50%"}
{"COMPOUND": "CC[C@H](C)[C@H](NC(=O)CCCCCCCCCCCCCCCC(=O)O)C(=O)N[C@@H](C)C(=O)N[C@@H](CCC(N)=O)C(=O)N[C@@H](CCC(=O)O)C(=O)N[C@@H](CC(C)C)C(=O)N[C@@H](CCCNC(=N)N)C(=O)NC(CCCNC(=N)N)C(=O)N[C@H](C(=O)NCC(=O)N[C@@H](CC(=O)O)C(=O)N[C@@H](CCC(=O)O)C(=O)N[C@@H](Cc1ccccc1)C(=O)O)[C@@H](C)CC (stereo not given in full) ({C17 diacid}-IAQELR[ξR]IGDEF-OH)", "inhibition": "> 50%"}
{"COMPOUND": "CC[C@H](C)[C@H](NC(=O)CCCCCCCCCCCCC(=O)O)C(=O)N[C@@H](C)C(=O)N[C@@H](CCC(N)=O)C(=O)N[C@@H](CCC(=O)O)C(=O)N[C@@H](CC(C)C)C(=O)N[C@@H](CCCNC(=N)N)C(=O)NC(CCCNC(=N)N)C(=O)N[C@H](C(=O)NCC(=O)N[C@@H](CC(=O)O)C(=O)N[C@@H](CCC(=O)O)C(=O)N[C@@H](Cc1ccccc1)C(=O)O)[C@@H](C)CC (stereo not given in full) ({C14 diacid}-IAQELR[ξR]IGDEF-OH)", "inhibition": "< 50%"}

Now consider a different compound.
stdin: Can you share its inhibition? I mean this compound: CC[C@H](C)[C@H](NC(=O)COCCOCCNC(=O)COCCOCCNC(=O)CC[C@H](NC(=O)CCCCCCCCCCCCCCCCC(=O)O)C(=O)O)C(=O)N[C@@H](C)C(=O)N[C@@H](CCC(N)=O)C(=O)N[C@@H](CCC(=O)O)C(=O)N[C@@H](CC(C)C)C(=O)N[C@@H](CCCNC(=N)N)C(=O)N[C@@H](CCCNC(=N)N)C(=O)N[C@H](C(=O)NCC(=O)N[C@@H](CC(=O)O)C(=O)N[C@@H](CCC(=O)O)C(=O)N[C@@H](Cc1ccccc1)C(=O)O)[C@@H](C)CC ({C18 diacid-γGlu-AEEA-AEEA}-IAQELRRIGDEF-OH)
stdout: < 50%
